- Test system: PI(3)P liposomes
- ASSAY_METHOD_TEXT: Yeast proteome chip probed with PI(3)P liposomes
- CONDITION_LABEL: liposome binding signal on yeast proteome chip, Cy3-streptavidin detection
- Excerpt: To identify PI-binding proteins in yeast, liposomes were used as probes because the liposome provides the most relevant physiological condition to assay the interactors. Six types of liposomes were used. Each contains phosphatidylcholine (“PC”) with 1% (w/w) N-(biotinoyl)-1,2-dihexadecanoyl-sn-glycero-3-phosphoethanolamine, triethylammonium salt (biotin DHPE). The biotinylated lipid serves as a label that can be detected by Cy3-streptavidin (21). […]
Entries and their measured PI(3)P follow.
Enter a number only.

In plain terms, ROT1: yeast GST-HisX6 fusion protein on proteome chip (protein, UniProt Q03691 25-256, looked up, GST-His6 tag, yeast GST-HisX6 fusion protein on proteome chip) Protein ROT1: EDESNSIYGTWSSKSNQVFTGPGFYDPVDELLIEPSLPGLSYSFTEDGWYEEATYQVSGNPRNPTCPMASLIYQHGTYNISENGTLVLNPIEVDGRQLFSDPCNDDGVSTYSRYNQTETFKEYAVGIDPYHGIYTLQLYQYDGTPMQPLYLAYRPPMMLPTETLNPTSSATSTDDPSSNKKRSLRSLVRRSLENRHKTNAIKRQNTSFLTSNAIWYISAGMLGVGSLLFLAF has a documented PI(3)P of 33.25

In plain terms, MET8: yeast GST-HisX6 fusion protein on proteome chip (protein, left off: a dimerising Fc or GST, yeast GST-HisX6 fusion protein on proteome chip) MVKSLQLAHQLKDKKILLIGGGEVGLTRLYKLIPTGCKLTLVSPDLHKSIIPKFGKFIQNEDQPDYREDAKRFINPNWDPTKNEIYEYIRSDFKDEYLDLEDENDAWYIIMTCIPDHPESARIYHLCKERFGKQQLVNVADKPDLCDFYFGANLEIGDRLQILISTNGLSPRFGALVRDEIRNLFTQMGDLALEDAVVKLGELRRGIRLLAPDDKDVKYRMDWARRCTDLFGIQHCHNIDVKRLLDLFKVMFQEQNCSLQFPPRERLLSEYCSS has a documented PI(3)P of 117.00

In plain terms, ERV1: yeast GST-HisX6 fusion protein on proteome chip (protein, UniProt P27882 1-189, looked up, GST-His6 tag, yeast GST-HisX6 fusion protein on proteome chip) Mitochondrial FAD-linked …: MKAIDKMTDNPPQEGLSGRKIIYDEDGKPCRSCNTLLDFQYVTGKISNGLKNLSSNGKLAGTGALTGEASELMPGSRTYRKVDPPDVEQLGRSSWTLLHSVAASYPAQPTDQQKGEMKQFLNIFSHIYPCNWCAKDFEKYIRENAPQVESREELGRWMCEAHNKVNKKLRKPKFDCNFWEKRWKDGWDE has a documented PI(3)P of 15.75

The reported numbers originate from patent US20050182242A1.
